Please go through the items and note down their IC50 (µg/mL), pseudovirus neutralization.
biological target: HIV-1 92TH021 envelope protein (Env) on pseudovirus (HIV-1 isolate 92TH021); experiment: cell-based or functional assay

Could I get IC50 (µg/mL), pseudovirus neutralization for every one of these entries?
1. 1460_G14 (PGG14) (antibody, human IgG1, kappa, V domains shown) VH: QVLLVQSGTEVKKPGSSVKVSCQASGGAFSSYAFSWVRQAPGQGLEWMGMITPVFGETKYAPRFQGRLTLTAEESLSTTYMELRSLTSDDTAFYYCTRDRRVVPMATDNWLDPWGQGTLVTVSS VL: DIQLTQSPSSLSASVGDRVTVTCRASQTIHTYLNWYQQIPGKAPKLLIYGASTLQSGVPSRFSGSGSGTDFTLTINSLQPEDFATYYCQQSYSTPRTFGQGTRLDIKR
2. 1456_P20 (PG20) (antibody, human IgG1, kappa, V domains shown) VH: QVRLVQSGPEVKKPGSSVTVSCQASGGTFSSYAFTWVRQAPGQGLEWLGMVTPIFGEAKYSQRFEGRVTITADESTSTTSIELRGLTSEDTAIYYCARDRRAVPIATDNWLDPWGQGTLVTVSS VL: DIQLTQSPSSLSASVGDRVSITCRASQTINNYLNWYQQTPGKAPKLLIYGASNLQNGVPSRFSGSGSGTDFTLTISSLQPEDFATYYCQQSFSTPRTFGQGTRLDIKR
3. 1443_C16 (PG16) (TCN-116) (antibody, V domains shown) VH: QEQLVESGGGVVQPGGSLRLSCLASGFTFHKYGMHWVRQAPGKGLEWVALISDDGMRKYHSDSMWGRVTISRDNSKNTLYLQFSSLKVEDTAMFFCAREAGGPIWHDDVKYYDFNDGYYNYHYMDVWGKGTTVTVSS VL: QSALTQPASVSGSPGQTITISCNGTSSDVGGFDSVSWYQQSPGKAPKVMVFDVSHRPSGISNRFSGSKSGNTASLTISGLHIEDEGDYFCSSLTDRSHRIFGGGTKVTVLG

1: > 50 µg/mL; 2: > 50 µg/mL; 3: 0.13 µg/mL

The recorded IC50 (µg/mL), pseudovirus neutralization for entry 1495_C14 (PGC14) (antibody, human IgG1, lambda, V domains shown) VH: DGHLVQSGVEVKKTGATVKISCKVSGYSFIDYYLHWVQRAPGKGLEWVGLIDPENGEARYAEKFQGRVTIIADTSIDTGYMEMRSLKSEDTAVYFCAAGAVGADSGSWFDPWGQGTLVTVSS VL: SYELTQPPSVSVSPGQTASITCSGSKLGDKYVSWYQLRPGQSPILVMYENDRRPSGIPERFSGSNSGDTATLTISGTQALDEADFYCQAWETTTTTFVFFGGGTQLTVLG equals > 50 µg/mL
